From: PubChem BioAssay AID1159606

assay: inhibitors of TWEAK-Fn14 signaling, primary screen, luciferase reporter cells, uHTS (AID 1159606); conditions: TWEAK-stimulated Fn14 reporter cells, luciferase luminescence, 8 h; at 10 µM
The campaign covered roughly 360,000 compounds. About 7,300 (2%) were called active. No stated cut-off is given here; in the data, active means inhibition above about 50%; inactive means the rest. This is one part of a sample in which actives are shown more often than they occur.
Outcome codes: TRUE (active), FALSE (inactive)

{"COMPOUND": "C=C1C(=O)OC2C1CCC(C)=CCCC1(C)OC21 (stereo unspecified)", "CLASS_ASSIGNMENT": "TRUE"}
{"COMPOUND": "Cc1nc2nc3c(cn2n1)C(=O)CC(c1ccccc1)C3 (stereo unspecified)", "CLASS_ASSIGNMENT": "FALSE"}
{"COMPOUND": "CC(=O)N1CCC(C(=O)Nc2nc(-c3ccccc3)ns2)CC1", "CLASS_ASSIGNMENT": "FALSE"}
{"COMPOUND": "COc1ccc(C(=O)NC(C)c2nccs2)cc1OC1CCN(C(C)C)CC1 (stereo unspecified)", "CLASS_ASSIGNMENT": "FALSE"}
{"COMPOUND": "Cc1cccc(NC(=O)/C=C/c2ccc3c(c2)OCO3)n1", "CLASS_ASSIGNMENT": "FALSE"}
{"COMPOUND": "COc1cccc2cc(C(N)=O)/c(=N\\NC(=O)c3ccccc3)oc12", "CLASS_ASSIGNMENT": "TRUE"}
{"COMPOUND": "O=S1(=O)CC(N2CCSCC2)CN1Cc1cn(Cc2cccc(Cl)c2)nn1 (stereo unspecified)", "CLASS_ASSIGNMENT": "FALSE"}
{"COMPOUND": "COc1cccc2cc(C(=O)N(C)C)c(=O)oc12", "CLASS_ASSIGNMENT": "FALSE"}
{"COMPOUND": "CC(C)c1ccc(/C=C2\\NC(=O)NC2=O)cc1", "CLASS_ASSIGNMENT": "FALSE"}
{"COMPOUND": "Cc1oc2c(C)c3oc(=O)c(CC(=O)N[C@@H](CC(C)C)C(=O)N[C@@H](Cc4ccccc4)C(=O)O)c(C)c3cc2c1C", "CLASS_ASSIGNMENT": "FALSE"}
{"COMPOUND": "O=C(CNC(=O)C(c1ccccc1)c1ccccc1)N/N=C\\c1ccc2c(c1)OCO2", "CLASS_ASSIGNMENT": "FALSE"}

* * *

test: inhibitors of TWEAK-Fn14 signaling, primary screen, luciferase reporter cells, uHTS (AID 1159606); conditions: TWEAK-stimulated Fn14 reporter cells, luciferase luminescence, 8 h; at 10 µM; stronger effect = higher value
Screen size: about 360,000 compounds; about 7,300 (2%) were called active. Shown is part of a subset that was picked to be rich in actives.
# Lookup of reported inhibition keyed by entry

{"MOLECULE": "O=C(CN1CCN(C2CCS(=O)(=O)C2)CC1)N1N=C(c2ccc(Cl)cc2)CC1c1ccco1 (configuration not stated)", "UNIT_ANNOTATION": "%", "inhibition": 73.8}
{"MOLECULE": "CCC(=O)Nc1nnc(S(=O)(=O)N2CCCc3ccccc32)s1", "UNIT_ANNOTATION": "%", "inhibition": -3.9}
{"MOLECULE": "NS(=O)(=O)c1ccc(CNC(=O)c2cccc(S(=O)(=O)N3CCc4ccccc43)c2)cc1", "UNIT_ANNOTATION": "%", "inhibition": 3.71}
{"MOLECULE": "CC(Sc1ncnc2c1cnn2-c1ccccc1)C(=O)Nc1ccc(N2CCOCC2)cc1 (configuration not stated)", "UNIT_ANNOTATION": "%", "inhibition": -20.4}
{"MOLECULE": "COc1ccc(CCNC(=O)c2ccccc2-c2ccccc2C(=O)O)cc1OC", "UNIT_ANNOTATION": "%", "inhibition": 4.96}
{"MOLECULE": "Cc1ccc2cc(C)c(N3CCN(c4ccc(F)cc4)CC3)nc2c1", "UNIT_ANNOTATION": "%", "inhibition": 8.39}
{"MOLECULE": "CCN(CC)CCOc1ccc2c(c1)C(=NNC(=O)c1ccccn1)c1cc(OCCN(CC)CC)ccc1-2", "UNIT_ANNOTATION": "%", "inhibition": -85.7}
{"MOLECULE": "O=C1NNC(c2ccccc2)=N/C1=C\\c1ccc(Cl)cc1", "UNIT_ANNOTATION": "%", "inhibition": 16.8}
{"MOLECULE": "COCCn1c(N)c(NCc2ccccc2)c(=O)[nH]c1=O", "UNIT_ANNOTATION": "%", "inhibition": -0.79}
{"MOLECULE": "COc1ccc(CCNc2cc(N3CCN(C(=O)c4ccccc4OC)CC3)ccc2[N+](=O)[O-])cc1OC", "UNIT_ANNOTATION": "%", "inhibition": 94.3}
{"MOLECULE": "O=C(NNc1ccccc1Cl)C(O)(c1cccc(C(F)(F)F)c1)c1cccc(C(F)(F)F)c1", "UNIT_ANNOTATION": "%", "inhibition": 74.5}
{"MOLECULE": "COc1ccc(-n2ncc3c(N4CCc5ccccc54)ncnc32)cc1", "UNIT_ANNOTATION": "%", "inhibition": -15.6}
{"MOLECULE": "COc1ccc(-n2ncc3c(N4CCCc5ccccc54)ncnc32)cc1", "UNIT_ANNOTATION": "%", "inhibition": 58.1}
{"MOLECULE": "O=C(NC(Nc1nc2ccc([N+](=O)[O-])cc2s1)(C(F)(F)F)C(F)(F)F)c1ccccc1", "UNIT_ANNOTATION": "%", "inhibition": 57.6}
{"MOLECULE": "O=C(c1ccccc1)N1CCN(C(=O)c2cc3nc(-c4ccccc4)cc(C(F)(F)F)n3n2)CC1", "UNIT_ANNOTATION": "%", "inhibition": 12}
{"MOLECULE": "O=C(O)c1ccccc1CSc1nc2ccccc2s1", "UNIT_ANNOTATION": "%", "inhibition": 53.1}
{"MOLECULE": "CC(=O)c1c(C)[nH]c(C(=O)COC(=O)c2cccc(S(=O)(=O)N(C)c3ccccc3)c2)c1C", "UNIT_ANNOTATION": "%", "inhibition": 101}
{"MOLECULE": "CCN1C(=O)N[C@@H](c2ccccc2)[C@H](C(C)=O)[C@H]1C", "UNIT_ANNOTATION": "%", "inhibition": -0.1}
{"MOLECULE": "O=[N+]([O-])c1c(NCCO)cc(Sc2nc3ccccc3s2)c2nonc12", "UNIT_ANNOTATION": "%", "inhibition": 9.76}
{"MOLECULE": "NC(=O)COC(=O)c1sc2cc(F)ccc2c1Cl", "UNIT_ANNOTATION": "%", "inhibition": -16.4}
{"MOLECULE": "CCC(C)Cn1c(O)cc2nn(-c3nc4ccccc4s3)c(=O)c-2c1C (configuration not stated)", "UNIT_ANNOTATION": "%", "inhibition": 61.6}
{"MOLECULE": "Cc1ccc(S(=O)(=O)n2oc(=O)c(C3CCCCC3)c2N)cc1", "UNIT_ANNOTATION": "%", "inhibition": 2.92}
{"MOLECULE": "Cc1ccc(C2=NN(C(=O)CSc3nc(N)cc(N)n3)C(c3ccco3)C2)cc1 (configuration not stated)", "UNIT_ANNOTATION": "%", "inhibition": 9.43}
{"MOLECULE": "COc1ccc([C@H]2[C@H](C(C)=O)N3N=Cc4ccccc4C3C23C(=O)OC(C)(C)OC3=O)cc1 (some centres not stated)", "UNIT_ANNOTATION": "%", "inhibition": 10.5}
{"MOLECULE": "Cc1ccc(-n2ncc3c(N4CCN(c5ccc(F)cc5)CC4)ncnc32)c(C)c1", "UNIT_ANNOTATION": "%", "inhibition": 73}
{"MOLECULE": "CCc1ccc([C@@H]2CC(=O)[C@@H]3CN(S(=O)(=O)c4ccc(C)cc4)[C@H](c4ccc(Cl)cc4)C[C@@H]3N2S(=O)(=O)c2ccc(C)cc2)cc1", "UNIT_ANNOTATION": "%", "inhibition": -18.3}
{"MOLECULE": "COc1ccccc1C(=O)NC(=S)Nc1ccc(N2CCOCC2)cc1", "UNIT_ANNOTATION": "%", "inhibition": -34.2}
{"MOLECULE": "O=C(NNC(=O)c1ccc(-n2cncn2)c([N+](=O)[O-])c1)c1ccccc1", "UNIT_ANNOTATION": "%", "inhibition": 2.77}
{"MOLECULE": "Cc1csc(NC(=O)CSc2ccc(-c3ccc(F)cc3)nn2)n1", "UNIT_ANNOTATION": "%", "inhibition": -0.16}
{"MOLECULE": "CC1CCCCC1NC(=O)COc1ccc(C#N)cc1 (configuration not stated)", "UNIT_ANNOTATION": "%", "inhibition": 2.53}
{"MOLECULE": "O=C1Nc2ccccc2NC(c2ccc3c(c2)OCO3)=C1N(Cc1ccc(F)cc1)C(=O)c1ccco1", "UNIT_ANNOTATION": "%", "inhibition": 9.28}
{"MOLECULE": "CC(Nc1ccc([N+](=O)[O-])cc1[N+](=O)[O-])c1ccccc1 (configuration not stated)", "UNIT_ANNOTATION": "%", "inhibition": -18.4}
{"MOLECULE": "Cc1ccc(S(=O)(=O)c2nc(NCCCn3ccnc3)sc2Cl)cc1", "UNIT_ANNOTATION": "%", "inhibition": 80.5}
{"MOLECULE": "O=C(NCCc1ccc(F)cc1)c1n[nH]c2ccccc12", "UNIT_ANNOTATION": "%", "inhibition": -18.2}
{"MOLECULE": "COc1ccccc1C(=O)NC(=S)NC12CC3CC(CC(C3)C1)C2", "UNIT_ANNOTATION": "%", "inhibition": 0.54}
{"MOLECULE": "C[N+](C)(C)CCNC(=O)c1c[nH]c2ccccc12", "UNIT_ANNOTATION": "%", "inhibition": -3.99}
{"MOLECULE": "CCCCCCc1cc2cc(-c3nnc(-c4ccccc4)o3)c(=O)oc2cc1O", "UNIT_ANNOTATION": "%", "inhibition": 69.9}
{"MOLECULE": "CC1CCN(C(=O)c2cccc(S(=O)(=O)N3CCCc4ccccc43)c2)CC1", "UNIT_ANNOTATION": "%", "inhibition": -0.65}
{"MOLECULE": "CC(C)Sc1ncnc2c1cnn2-c1ccccc1", "UNIT_ANNOTATION": "%", "inhibition": 15.4}
{"MOLECULE": "CC(OC(=O)/C=C/c1ccccc1)C(=O)NC1CCCCC1C (configuration not stated)", "UNIT_ANNOTATION": "%", "inhibition": -1.03}
{"MOLECULE": "Clc1ccc(-c2nnc(SCc3nc4ccccc4s3)o2)cc1", "UNIT_ANNOTATION": "%", "inhibition": -3.77}
{"MOLECULE": "NS(=O)(=O)c1ccc2nc(NC(=O)C3=COCCO3)sc2c1", "UNIT_ANNOTATION": "%", "inhibition": 24.4}
